Tested on: E. coli TESEC Mtb DapB
Experiment: growth (OD600 after 10 h); higher = more growth (less inhibition)
Settings: arabinose induction (level): High; compound 0.1 mM; raw OD600 reference: median of DMSO wells […], cell-free background 0.041
Where a name gives a salt, the structure may show the parent alone.
assay_readout: growth
Give bare numbers.

compound	assay_target	growth
CCOc1nc2cccc(C(=O)O)c2n1Cc1ccc(-c2ccccc2-c2nnn[nH]2)cc1	E. coli TESEC Mtb DapB	0.197
CO[C@H]1/C=C/O[C@@]2(C)Oc3c(C)c(O)c4c(O)c(c5c(nc6cc(C)ccn65)c4c3C2=O)NC(=O)/C(C)=C\C=C\[C@H](C)[C@H](O)[C@@H](C)[C@@H](O)[C@@H](C)[C@H](OC(C)=O)[C@@H]1C	E. coli TESEC Mtb DapB	0.103
CC(=O)N[C@@H](CS)C(=O)O	E. coli TESEC Mtb DapB	0.196
COc1ncnc(NS(=O)(=O)c2ccc(N)cc2)c1OC	E. coli TESEC Mtb DapB	0.195
Nc1ccn([C@@H]2CS[C@H](CO)O2)c(=O)n1	E. coli TESEC Mtb DapB	0.18
Cc1ccccc1OCC(O)CO (centres undefined)	E. coli TESEC Mtb DapB	0.197
NNc1nncc2ccccc12 [Hydralazine hydrochloride]	E. coli TESEC Mtb DapB	0.19
O=C1NCCN1c1ncc([N+](=O)[O-])s1	E. coli TESEC Mtb DapB	0.161

Field: next compound
Quick one: growth of O=C(CCCN1CCN(c2ccccn2)CC1)c1ccc(F)cc1 ?
0.194

====

System: E. coli TESEC Mtb Alr
Assay: growth (OD600 after 10 h); higher = more growth (less inhibition)
Conditions: arabinose 10000000 nM; compound 0.1 mM; raw OD600 reference: median of DMSO wells 0.146, cell-free background 0.041
Counter-ions that a name gives are not always drawn.
Classify by measured growth: true if it is equal to or exceeds 0.1, false if it is smaller.

compound	group
CN(C)CCCN1c2ccccc2Sc2ccc(C(F)(F)F)cc21 [Triflupromazine hydrochloride]	false
C=Cc1c(C)c2cc3nc(cc4[nH]c(cc5nc(cc1[nH]2)C(C)=C5CCC(=O)O)c(CCC(=O)OC)c4C)[C@@]1(C)C3=CC=C(C(=O)OC)C1C(=O)OC.C=Cc1c(C)c2cc3nc(cc4[nH]c(cc5nc(cc1[nH]2)C(C)=C5CCC(=O)OC)c(CCC(=O)O)c4C)[C@@]1(C)C3=CC=C(C(=O)OC)C1C(=O)OC (stereo partly specified) [Verteporfin]	true
CC(=O)Oc1cccc2c1C(=O)c1c(OC(C)=O)cc(C(=O)O)cc1C2=O [Diacerein]	false
NCc1ccccc1CC(=O)N[C@@H]1C(=O)N2C(C(=O)O)=C(CSc3nnnn3CC(=O)O)CS[C@H]12 [Ceforanide]	true
CC1(C)[C@@H](OC(=O)CCC(=O)O)CC[C@]2(C)[C@H]3C(=O)C=C4[C@@H]5C[C@@](C)(C(=O)O)CC[C@]5(C)CC[C@@]4(C)[C@]3(C)CC[C@@H]12 [Carbenoxolone disodium salt]	true

Is growth at least 0.1? Consider Cc1cccc(C)c1OCC(C)N (stereo unspecified) [Mexiletine hydrochloride]
true

====

Task for the reader: assign each of the following molecules its reported growth.
Test system: E. coli TESEC Mtb Alr
Experiment: growth (OD600 after 10 h); higher = more growth (less inhibition)
Conditions: arabinose 10000000 nM; compound 0.1 mM; raw OD600 reference: median of DMSO wells 0.146, cell-free background 0.041
Counter-ions that a name gives are not always drawn.
One number for each entry.

molecule	assay_readout	test_result
CN1C(C)(C)CCCC1(C)C [Pempidine tartrate]	growth	0.143

Please state growth for every molecule in the list that follows.
1. Clc1cccc(Cl)c1NC1=NCCN1 [Clonidine hydrochloride]
2. CCCCNc1cc(C(=O)O)cc(S(N)(=O)=O)c1Oc1ccccc1 [Bumetanide]
3. C[C@@H]1NC(=O)NC1=O
4. O=C(NCCO[N+](=O)[O-])c1cccnc1

1. 0.145
2. 0.138
3. 0.146
4. 0.153
